// reported IC50 per item
TARGET ENTITY: human TASK-1 (Homo sapiens)
Sequence (O14649 whole entry): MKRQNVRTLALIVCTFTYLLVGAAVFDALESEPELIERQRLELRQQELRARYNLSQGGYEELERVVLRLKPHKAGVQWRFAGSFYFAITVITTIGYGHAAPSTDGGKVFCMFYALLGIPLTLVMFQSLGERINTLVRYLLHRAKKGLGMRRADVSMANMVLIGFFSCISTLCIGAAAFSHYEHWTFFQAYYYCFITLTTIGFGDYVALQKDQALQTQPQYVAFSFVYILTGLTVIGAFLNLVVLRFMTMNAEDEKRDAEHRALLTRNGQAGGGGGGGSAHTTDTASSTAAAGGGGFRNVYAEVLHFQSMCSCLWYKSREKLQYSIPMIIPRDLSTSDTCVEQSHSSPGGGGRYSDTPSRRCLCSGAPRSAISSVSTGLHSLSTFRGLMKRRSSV
EXPERIMENT: Inhibition of recombinant TASK-1 in stably transfected CHO cells, KCl-induced depolarization, voltage-sensitive dye (B-2)
Format: cell-based
Parameters: expressed in transfected cells; host or cells: stably transfected CHO cells
CONDITION DETAILS: depolarization induced by 40 mM potassium chloride, some mean values from multiple determinations
Give me the value, and tack the unit on after it.

Would you please look over these solved cases?
O=C(c1ccccc1F)N1C2CC1CN(Cc1c(-c3ccc(Cl)cc3)nc3ccccn13)C2	635 nM
COc1ccc(F)c(C(=O)N2CC3CCC2CN3Cc2c(-c3ccc(C(C)C)nc3)nc3ccccn23)n1 (single isomer, unassigned) [Example 126]	17900 nM
CC(C)(C)OC(=O)N1C2CCC1CN(Cc1c(-c3ccc(Cl)cc3)nc3ccccn13)C2	1090 nM
O=C(C1CCCC1)N1C2CC1CN(Cc1c(-c3ccc(Cl)cc3)nc3ccccn13)C2	535 nM
COc1cccc(C(=O)N2CC3CCC2CN3Cc2c(-c3ccc(Br)cc3)nc3ccccn23)n1 (racemic)	72 nM

Moving on to another compound below.
Challenge: Item under review: `O=C(c1cc(F)ccc1Cl)N1C2CCC1CN(Cc1c(-c3ccc(Cl)cc3)nc3ccccn13)C2` . Reported IC50?
Response given: 870 nM

====

TARGET ENTITY: human TASK-3 (Homo sapiens)
Sequence (Q9NPC2 whole entry): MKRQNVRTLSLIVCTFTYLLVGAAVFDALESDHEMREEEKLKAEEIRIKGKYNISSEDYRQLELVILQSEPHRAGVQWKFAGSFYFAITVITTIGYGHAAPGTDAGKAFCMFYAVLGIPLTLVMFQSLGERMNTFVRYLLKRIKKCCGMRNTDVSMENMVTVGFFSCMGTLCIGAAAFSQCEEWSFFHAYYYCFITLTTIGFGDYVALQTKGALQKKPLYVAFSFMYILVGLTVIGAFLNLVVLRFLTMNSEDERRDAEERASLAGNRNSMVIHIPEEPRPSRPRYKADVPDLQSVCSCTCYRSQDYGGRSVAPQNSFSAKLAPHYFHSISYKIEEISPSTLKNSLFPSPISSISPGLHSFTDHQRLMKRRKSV
EXPERIMENT: Inhibition of recombinant TASK-3 in stably transfected CHO cells, KCl-induced depolarization, voltage-sensitive dye (B-2)
Type: cell-based
Design: expressed in transfected cells; host or cells: stably transfected CHO cells
CONDITION DETAILS: depolarization induced by 40 mM potassium chloride, some mean values from multiple determinations
Experimental: B-2. Inhibition of Recombinant TASK-1 and TASK-3 In Vitro The investigations on the inhibition of the recombinant TASK-1 and TASK-3 channels were conducted using stably transfected CHO cells. […] 6 (5), 305-312 (2001); Molecular Devices FLIPR Application Note: Measuring membrane potential using the FLIPR® membrane potential assay kit on Fluorometric Imaging Plate Reader (FLIPR®) systems, http://www.moleculardevices.com/reagents-supplies/assay-kits/ion-channels/flipr-membrane-potential-assay-kits]. […]
QUANTITY MEASURED: IC50 (nM)
Only the number, expressed in nM, is required.

Would you please look over these solved cases?
O=C(C1CCC1)N1CC2CCC1CN2Cc1c(-c2ccc(Cl)cc2)nc2ccccn12 (single isomer, unassigned)	8.9
Cc1ccccc1NC(=O)N1C2CCC1CN(Cc1c(-c3ccc(Cl)cc3)nc3ccccn13)C2	220
O=C(NC1CCCCC1)N1C2CCC1CN(Cc1c(-c3ccc(Cl)cc3)nc3ccccn13)C2	1000
O=C(C1CCCC1)N1CC2CCC(C1)N2Cc1c(-c2ccc(Cl)cc2)nc2ccccn12	126
CC(C)c1ccc(-c2nc3ccccn3c2CN2CC3CCC2CN3C(=O)C2CCCC2)cc1 (single isomer, unassigned) [Example 63]	140
COc1ccc(F)cc1C(=O)N1C2COCC1CN(Cc1c(-c3ccc(Cl)cc3)nc3ccccn13)C2	30

Moving on to another compound below.
Challenge: Item under review: `CC(C)c1ccc(-c2nc3ccccn3c2CN2CC3CC(C2)N3C(=O)C2CCCC2)cc1` . Reported IC50?
Response given: 1600

====

TARGET ENTITY: human TASK-3 (Homo sapiens)
EXPERIMENT: Inhibition of recombinant TASK-3 in stably transfected CHO cells, KCl-induced depolarization, voltage-sensitive dye (B-2)
Format: cell-based
Parameters: expressed in transfected cells; host or cells: stably transfected CHO cells
CONDITION DETAILS: depolarization induced by 40 mM potassium chloride, some mean values from multiple determinations
QUANTITY MEASURED: IC50 (nM)
Only the number, expressed in nM, is required.

Would you please look over these solved cases?
CCN(C(=O)N1C2COCC1CN(Cc1c(-c3ccc(Cl)cc3)nc3ccccn13)C2)c1ccccc1	100
CCOc1cccc(C(=O)N2CC3CCC2CN3Cc2c(-c3ccc(Cl)cc3)nc3ccccn23)c1 (single isomer, unassigned)	76

Moving on to another compound below.
Challenge: Item under review: COc1ccc(Cl)c(C(=O)N2C[C@@H]3CC[C@H]2CN3Cc2c(-c3ccc(Cl)cc3)nc3ccccn23)n1 (single isomer, unassigned; enantiomer 1) . Reported IC50?
Response given: 13

From: patent US20210024545A1
